# Test system: SKM-1
# EXPERIMENTAL PROTOCOL: CellTiter Blue cell viability assay
# Type: cell-based, human
# MEASUREMENT CONTEXT: Homo sapiens, SKM-1, 48 h; read-out: cellular IC50
# Description: The human AML cell lines, OCI-AML3 (carrying the NPM1 gene mutation A and the DNMT3A^R882C mutation), IMS-M2 (carrying the NPM1 gene mutation A), OCI-AML2 (with the wild-type NPM1 and DNMT3A^R635W mutation), and SKM-1 and MOLM-13 (with the wild-type NPM1) were previously reported. […] Prior to screening, the appropriate cell concentration for all cell lines was determined. […] The results are expressed as mean ± standard error of the mean (SEM). […]
pIC50: −log10 of the molar value.
OBSERVABLE: pIC50

What value of measured pIC50 is listed for NC(=O)c1c(NC(=O)c2ccc(O)c(O)c2)sc2c1CCCCC2 [T159] ?
< 4.52

Query: pIC50; subject: O=c1[nH]c(-c2ccc(O)c(O)c2)nc2sc3c(c12)CCCC3 [T126]
5.16

Now look at this entry.
Any idea what its pIC50 is? The molecule is Cc1cc(-c2ccccc2)nc2nc(NC(=O)c3ccc(O)c(O)c3)nn12 [T101]
< 4.52
